Reported protein stability index values are given for each entry in this list.
B1: KCNA4 (parent)
chain: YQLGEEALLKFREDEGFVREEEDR

# Variants of: B1
# measurement-notes: protein stability index of a GFP-peptide fusion (GPS, HEK-293T) (PSI 1-6); higher = more stable;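 note: lentivirally expressed fusions sorted by FACS into six bins by GFP to DsRed ratio, PSI derived from sequencing read proportions per bin multiplied by bin number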
# condition-summary: c terminus: a fixed tail appended
Just the number, please, no unit after it.

change: L3K
reported: 5.02
--
change: E22I
reported: 4.03

Qu. Dear colleague, I am looking for the recorded protein stability index of the following variant: `G4P`
Ans. 5.03

Qu. Dear colleague, I am looking for the recorded protein stability index of the following variant: `E20M`
Ans. 4.06

Qu. Dear colleague, I am looking for the recorded protein stability index of the following variant: `E22T`
Ans. 4.11

Qu. Dear colleague, I am looking for the recorded protein stability index of the following variant: `E6K`
Ans. 4
